Values from paper PMC9838217

Kindly state binding signal for each of the entries shown.
# Assayed target: SALL4 ZFC4 WT (HT-SELEX) (Mus musculus, UniProt Q8BX22 870-940)
# Sequence: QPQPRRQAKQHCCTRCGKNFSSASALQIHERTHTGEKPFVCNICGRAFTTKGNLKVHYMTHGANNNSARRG
# Protocol summary: HT-SELEX; high values mean tight binding
# Test context: protein: recombinant; vector His6-GST; dsDNA, one strand shown
Give bare numbers, in fold-change vs cycle 0.

Please review the entries below; each comes with its answer.
CCCAAG
0.456
AATGAT
2.25
ACGCTA
0.566
TATTGA
2.22
CCTTCC
0.487
CGCTAA
0.488
CATTAA
2.01
TAGAGA
1.42

Report binding signal for every entry below.
1. ATAGCA
2. ACGCAT

1. 1.2
2. 0.526

###

# Assayed target: SALL4 ZFC4 WT (HT-SELEX) (Mus musculus, UniProt Q8BX22 870-940)
# Sequence: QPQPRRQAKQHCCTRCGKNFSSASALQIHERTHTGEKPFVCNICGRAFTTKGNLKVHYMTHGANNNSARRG
# Protocol summary: HT-SELEX; high values mean tight binding
# Test context: protein: recombinant; vector His6-GST; dsDNA, one strand shown
Measure name: binding signal (fold-change vs cycle 0)
Numbers only, in fold-change vs cycle 0.

Please review the entries below; each comes with its answer.
CGATAG
0.68
GTATGA
1.51
GGCATA
0.502
ATCTTA
2.21
CACGTA
0.686

Report binding signal for every entry below.
1. AGTCTG
2. CATCGA
3. TAATCA

1: 0.76; 2: 0.706; 3: 2.37

Report binding signal for every entry below.
1. ACTAAG
2. AGCCAA
3. AAGAGA
4. GGGTCA
5. GAACGA

1.42
0.49
1.45
0.435
0.753

###

# Assayed target: SALL4 ZFC4 G921D (HT-SELEX) (Mus musculus, UniProt Q8BX22 870-940, G921D)
# Sequence: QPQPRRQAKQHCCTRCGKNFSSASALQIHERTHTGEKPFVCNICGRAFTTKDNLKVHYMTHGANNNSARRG
# Protocol summary: HT-SELEX; high values mean tight binding
# Test context: protein: recombinant; vector His6-GST; dsDNA, one strand shown
Could you please classify the records by binding signal using these ranges: lowest (below 0.6 fold-change vs cycle 0), middle (0.6 fold-change vs cycle 0 to below 1 fold-change vs cycle 0), highest (1 fold-change vs cycle 0 or more)

GAGAAC
highest

Sort into band: GATTGA
highest

Sort into band: AATATA
highest

Sort into band: AAACAA
highest

Sort into band: CAGATG
middle

Sort into band: GACCTC
middle

Sort into band: GTGAAA
highest

Sort into band: AGCGCA
lowest

Sort into band: CCGTCC
lowest

Sort into band: GGCCTA
lowest

Sort into band: CGAACC
lowest

Sort into band: AGGCGC
lowest

Sort into band: GGATCA
highest

Sort into band: CGGGGA
lowest

Sort into band: GCGATA
middle

Sort into band: ACGCTC
lowest

Sort into band: AACTGT
highest

Sort into band: AGGCCC
lowest

Sort into band: AGCCGG
lowest

Sort into band: AACGCC
lowest

Sort into band: GCCAGA
lowest

###

# Assayed target: SALL4 ZFC4 R900W (HT-SELEX) (Mus musculus, UniProt Q8BX22 870-940, R900W)
# Sequence: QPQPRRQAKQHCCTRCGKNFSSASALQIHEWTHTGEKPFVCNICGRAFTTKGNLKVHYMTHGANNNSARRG
# Protocol summary: HT-SELEX; high values mean tight binding
# Test context: protein: recombinant; vector His6-GST; dsDNA, one strand shown
Measure name: log10 binding signal (log10 of the value in fold-change vs cycle 0)
Heads up, the numbers here are log10 of binding signal in fold-change vs cycle 0 units.

AGTCTG
-0.06
CCTTAG
0.03
CGATCA
-0.11
GGGAAC
-0.23
CTGTGA
-0.06
GTTCAA
0.13
GCCGTA
-0.64
ACCGAT
-0.13

Report log10 binding signal for every entry below.
1. AGGGTA
2. CCACCA
3. AAGGAC
4. CTGCAG
5. AATAAT
6. CGTGTC

1: 0.00; 2: -0.33; 3: -0.03; 4: -0.43; 5: 0.42; 6: -0.39

Report log10 binding signal for every entry below.
1. CCTACG
2. CCGAAG
3. AAGCTG
4. GAAGAA

1. -0.35
2. -0.36
3. -0.15
4. 0.19

Report log10 binding signal for every entry below.
1. AGGCCA
2. CTTATA
3. ACGCGC
4. CTTAGA

1: -0.50; 2: 0.32; 3: -1.23; 4: 0.16

Report log10 binding signal for every entry below.
1. ACGTAA
2. AACATA
3. ATGACA
4. AGGCAT
5. ATTAGG

0.11
0.29
0.15
-0.15
0.17

Report log10 binding signal for every entry below.
1. ACTACT
2. CGAATA
3. GTCCTA
4. AGGGTC
5. CCACGG
6. AGTCCC
7. GGCCGA
8. CGCTCA

[0.18, 0.05, -0.04, -0.28, -0.66, -0.27, -1.06, -0.51]

Report log10 binding signal for every entry below.
1. ATTCCA
2. AATGAG

1. 0.16
2. 0.18

Report log10 binding signal for every entry below.
1. GAAAAC
2. CGGATC
3. CACACG

[0.08, -0.36, -0.28]

Report log10 binding signal for every entry below.
1. TAATCA
2. CGCATA
3. AAGACA
4. GCGTTA
5. GACGCA

0.33
-0.30
0.15
-0.24
-0.58

###

# Assayed target: SALL4 ZFC4 WT (HT-SELEX) (Mus musculus, UniProt Q8BX22 870-940)
# Sequence: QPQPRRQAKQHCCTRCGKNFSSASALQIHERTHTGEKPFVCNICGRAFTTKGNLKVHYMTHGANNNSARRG
# Protocol summary: HT-SELEX; high values mean tight binding
# Test context: protein: recombinant; vector His6-GST; dsDNA, one strand shown
Kindly state binding signal for each of the entries shown.
Numbers only, in fold-change vs cycle 0.

ATTGGC
0.461
AAACGT
1.02
CTTCAC
0.856
AATAGC
1
GTCTCA
0.736

Report binding signal for every entry below.
1. GATAAC
2. ACCACC

[1.49, 0.457]

Report binding signal for every entry below.
1. AACTGC
2. AGACCT
3. ACTGAG

1: 0.6; 2: 0.753; 3: 0.855

Report binding signal for every entry below.
1. CGCATA
2. AACCAT
3. CCTCTC
4. CACCTA
5. AACGGA
6. AAAGCT
7. CAATCG

1: 0.489; 2: 1.38; 3: 0.497; 4: 0.824; 5: 0.714; 6: 1.01; 7: 0.623

Report binding signal for every entry below.
1. AGTTGC
2. ACTAAA
3. CACCTC
4. GTTTAA
5. GGGAAC
6. GACCAA
7. GAGTCC

1. 0.578
2. 1.81
3. 0.511
4. 1.69
5. 0.517
6. 0.62
7. 0.481

Report binding signal for every entry below.
1. CCTCCC
2. ATTTGC
3. ACATTG
4. TGCCAA
5. AGGGGG
6. AGTGTG
7. TAAGTA

0.317
0.914
1.17
0.456
0.323
0.745
2.21

Report binding signal for every entry below.
1. ATGTCA
2. CAACTG
3. AGATTC
4. ACCGAT
5. ATAGAA
6. ATAATG
7. ATGAGC
8. GATTGA

1. 1.23
2. 0.724
3. 1.34
4. 0.687
5. 2.33
6. 2.28
7. 0.659
8. 1.34

Report binding signal for every entry below.
1. CCCTAA
2. AGTTAC
3. CCCAAC
4. AATGGT
5. CTTACA
6. TGTACA
7. CCATCC
8. ATGCTG

[0.849, 1.44, 0.395, 1.28, 1.41, 1.21, 0.48, 0.649]

Report binding signal for every entry below.
1. AAATGA
2. AACGCA
3. GCAAAC
4. TCAAAA

[2.02, 0.504, 0.54, 1.67]

###

# Assayed target: SALL4 ZFC4 WT (HT-SELEX) (Mus musculus, UniProt Q8BX22 870-940)
# Sequence: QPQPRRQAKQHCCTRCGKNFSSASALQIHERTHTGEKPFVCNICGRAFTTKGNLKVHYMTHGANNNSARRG
# Protocol summary: HT-SELEX; high values mean tight binding
# Test context: protein: recombinant; vector His6-GST; dsDNA, one strand shown
Measure name: binding signal
Note to self: number, then unit, no commentary.

AGGACC
0.441 fold-change vs cycle 0
GAGCAA
0.613 fold-change vs cycle 0
CAAAGA
1.18 fold-change vs cycle 0
AGAGCA
0.756 fold-change vs cycle 0
TCAGCA
0.676 fold-change vs cycle 0

Report binding signal for every entry below.
1. GACCCA
2. GGATTA

1. 0.39 fold-change vs cycle 0
2. 1.49 fold-change vs cycle 0
